Recorded IC50 by entry
Target or system: Polθ protein (amino acids 2-2590) (Homo sapiens)
Sequence (O75417 2-2590): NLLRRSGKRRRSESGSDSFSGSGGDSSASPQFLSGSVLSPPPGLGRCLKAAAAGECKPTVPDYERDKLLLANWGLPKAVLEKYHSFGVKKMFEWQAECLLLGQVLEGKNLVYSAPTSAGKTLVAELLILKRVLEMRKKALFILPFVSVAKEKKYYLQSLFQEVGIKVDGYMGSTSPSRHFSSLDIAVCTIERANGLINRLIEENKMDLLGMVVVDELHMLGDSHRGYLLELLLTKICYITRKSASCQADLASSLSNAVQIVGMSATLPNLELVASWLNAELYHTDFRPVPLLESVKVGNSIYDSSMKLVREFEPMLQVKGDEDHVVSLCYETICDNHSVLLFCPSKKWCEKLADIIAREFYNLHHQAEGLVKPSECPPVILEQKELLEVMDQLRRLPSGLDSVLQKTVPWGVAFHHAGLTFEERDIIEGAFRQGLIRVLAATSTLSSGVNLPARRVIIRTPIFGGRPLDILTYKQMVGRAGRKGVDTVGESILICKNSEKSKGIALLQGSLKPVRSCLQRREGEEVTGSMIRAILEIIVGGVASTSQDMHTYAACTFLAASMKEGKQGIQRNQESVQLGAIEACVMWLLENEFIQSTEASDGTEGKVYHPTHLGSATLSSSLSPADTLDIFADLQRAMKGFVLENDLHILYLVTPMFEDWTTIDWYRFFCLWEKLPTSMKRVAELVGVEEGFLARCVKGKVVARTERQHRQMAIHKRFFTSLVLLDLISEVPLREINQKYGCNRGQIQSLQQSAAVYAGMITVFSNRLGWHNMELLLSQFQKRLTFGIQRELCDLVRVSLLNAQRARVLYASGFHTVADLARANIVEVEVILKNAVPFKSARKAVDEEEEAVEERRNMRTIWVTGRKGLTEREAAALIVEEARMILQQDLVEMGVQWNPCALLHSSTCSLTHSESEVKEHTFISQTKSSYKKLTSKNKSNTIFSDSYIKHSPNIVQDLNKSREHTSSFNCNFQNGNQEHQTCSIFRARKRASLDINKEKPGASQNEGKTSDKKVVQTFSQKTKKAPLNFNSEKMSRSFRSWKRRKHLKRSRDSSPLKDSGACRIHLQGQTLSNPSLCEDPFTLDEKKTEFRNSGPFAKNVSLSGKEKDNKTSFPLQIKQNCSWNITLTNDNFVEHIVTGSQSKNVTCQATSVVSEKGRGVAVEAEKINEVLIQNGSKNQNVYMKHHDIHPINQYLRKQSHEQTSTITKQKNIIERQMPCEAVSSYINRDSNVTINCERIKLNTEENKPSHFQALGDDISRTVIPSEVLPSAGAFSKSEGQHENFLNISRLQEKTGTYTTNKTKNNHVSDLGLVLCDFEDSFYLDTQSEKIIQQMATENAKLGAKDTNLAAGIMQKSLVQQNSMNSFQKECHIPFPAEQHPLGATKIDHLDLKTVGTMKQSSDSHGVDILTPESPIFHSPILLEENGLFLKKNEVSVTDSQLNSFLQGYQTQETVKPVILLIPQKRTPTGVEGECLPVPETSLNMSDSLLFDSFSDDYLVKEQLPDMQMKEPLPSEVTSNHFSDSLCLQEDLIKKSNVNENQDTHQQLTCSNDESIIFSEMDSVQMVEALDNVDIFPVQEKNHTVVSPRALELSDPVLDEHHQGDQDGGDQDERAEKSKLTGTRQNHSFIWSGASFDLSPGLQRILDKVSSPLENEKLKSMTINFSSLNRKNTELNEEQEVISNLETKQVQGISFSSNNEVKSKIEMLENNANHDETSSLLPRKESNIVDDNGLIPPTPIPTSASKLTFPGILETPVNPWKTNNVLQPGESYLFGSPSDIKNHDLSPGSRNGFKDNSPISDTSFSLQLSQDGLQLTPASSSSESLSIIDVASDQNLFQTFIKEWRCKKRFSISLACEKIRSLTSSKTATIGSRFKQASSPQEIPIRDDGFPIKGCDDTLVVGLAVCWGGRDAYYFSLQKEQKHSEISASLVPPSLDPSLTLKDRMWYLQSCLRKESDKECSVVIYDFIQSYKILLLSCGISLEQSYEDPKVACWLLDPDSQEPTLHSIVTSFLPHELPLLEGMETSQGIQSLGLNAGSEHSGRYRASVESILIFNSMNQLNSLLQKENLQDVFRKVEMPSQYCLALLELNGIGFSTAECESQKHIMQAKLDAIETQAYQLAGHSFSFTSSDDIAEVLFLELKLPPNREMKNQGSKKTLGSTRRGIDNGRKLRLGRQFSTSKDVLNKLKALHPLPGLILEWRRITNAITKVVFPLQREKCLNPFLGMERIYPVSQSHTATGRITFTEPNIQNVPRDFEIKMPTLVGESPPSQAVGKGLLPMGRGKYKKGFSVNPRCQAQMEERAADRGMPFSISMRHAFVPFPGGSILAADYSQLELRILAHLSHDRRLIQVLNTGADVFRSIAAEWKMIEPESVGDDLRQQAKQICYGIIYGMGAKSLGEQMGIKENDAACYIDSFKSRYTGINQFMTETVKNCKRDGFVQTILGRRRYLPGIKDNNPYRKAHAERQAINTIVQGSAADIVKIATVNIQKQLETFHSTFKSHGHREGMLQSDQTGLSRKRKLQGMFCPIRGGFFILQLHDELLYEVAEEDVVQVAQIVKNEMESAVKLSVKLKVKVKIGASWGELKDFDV
Assay remarks: Polθ full length enzyme potency assay (PicoGreen)
Particulars: Polθ IC50 (nM), full length N-His, C-term FLAG tagged Polθ, PicoGreen fluorescence, 12 point concentration response

{"Compound": "CCN(C(=O)[C@@H]1C[C@H](N[C@@H]2CCOC[C@H]2O)CN1c1cc(C(F)(F)F)cc(C)n1)c1ccc(F)c(F)c1", "Target or system": "Polθ protein (amino acids 2-2590) (Homo sapiens)", "IC50": "248 nM"}
{"Compound": "CCc1cc(C)nc(N2C(=O)OC[C@H]2C(=O)N(C)c2ccc(F)c(Cl)c2)c1", "Target or system": "Polθ protein (amino acids 2-2590) (Homo sapiens)", "IC50": "39 nM"}
{"Compound": "Cc1cc(C(F)(F)F)cc(N2C(=O)[C@@H](O)[C@@H](O)[C@H]2C(=O)N(C)c2ccc3ccn(C)c3n2)n1", "Target or system": "Polθ protein (amino acids 2-2590) (Homo sapiens)", "IC50": "56 nM"}
{"Compound": "CCN(C)c1cc(C(F)(F)F)c(C#N)c(N2C[C@@H](O)C[C@H]2C(=O)N(C)c2cccc(C)c2)n1", "Target or system": "Polθ protein (amino acids 2-2590) (Homo sapiens)", "IC50": "395 nM"}
{"Compound": "Cc1cc(C(F)(F)F)cc(N2C(=O)OC[C@H]2C(=O)N(C)c2ccc3cn[nH]c3c2)n1", "Target or system": "Polθ protein (amino acids 2-2590) (Homo sapiens)", "IC50": "158 nM"}
{"Compound": "Cc1cc(C)c(C#N)c(N2C[C@@H](O)C[C@H]2C(=O)N(C)c2ccc(F)c(CF)c2)n1", "Target or system": "Polθ protein (amino acids 2-2590) (Homo sapiens)", "IC50": "415 nM"}
{"Compound": "CCN(C(=O)[C@@H]1CNC(=O)N1c1cc(C(F)(F)F)cc(C)n1)c1ccc(F)c(Cl)c1", "Target or system": "Polθ protein (amino acids 2-2590) (Homo sapiens)", "IC50": "32 nM"}
{"Compound": "Cc1cccc(N(C)C(=O)[C@@H]2C[C@H](O)CN2c2cc(C(C)C)cc(C)n2)c1", "Target or system": "Polθ protein (amino acids 2-2590) (Homo sapiens)", "IC50": "48 nM"}
{"Compound": "Cc1cc(C(F)(F)F)cc(N2C(=O)OC[C@H]2C(=O)N(C)c2ccc3cc[nH]c3n2)n1", "Target or system": "Polθ protein (amino acids 2-2590) (Homo sapiens)", "IC50": "15 nM"}
{"Compound": "Cc1cc(C(F)(F)F)cc(N2C(=O)NC[C@H]2C(=O)N(C)c2ccc(F)c(Cl)c2)n1", "Target or system": "Polθ protein (amino acids 2-2590) (Homo sapiens)", "IC50": "4 nM"}
{"Compound": "CCN(C(=O)[C@@H]1C[C@@H](N(C)C)CN1c1nc(C)cc(C)c1C#N)c1cccc(C)c1", "Target or system": "Polθ protein (amino acids 2-2590) (Homo sapiens)", "IC50": "263 nM"}
{"Compound": "Cc1cccc(N(C)C(=O)[C@@H]2[C@@H](O)[C@@H](O)CN2c2nc(C)cc(C(F)(F)F)c2C#N)c1", "Target or system": "Polθ protein (amino acids 2-2590) (Homo sapiens)", "IC50": "121 nM"}
{"Compound": "Cc1cc(C(F)(F)F)c(C#N)c(N2[C@H](C)CC[C@H]2C(=O)N(C)c2ccc(F)c(Cl)c2)n1", "Target or system": "Polθ protein (amino acids 2-2590) (Homo sapiens)", "IC50": "240 nM"}
{"Compound": "Cc1cc(C(F)(F)F)cc(N2C(=O)[C@@H](O)[C@@H](O)[C@H]2C(=O)N(C)c2ccc(F)c(Cl)c2F)n1", "Target or system": "Polθ protein (amino acids 2-2590) (Homo sapiens)", "IC50": "4 nM"}
{"Compound": "Cc1cc(C(F)(F)F)cc(N2C(=O)N(CC(O)CO)C[C@H]2C(=O)N(C)c2ccc(F)c(Cl)c2F)n1 (stereo partly drawn)", "Target or system": "Polθ protein (amino acids 2-2590) (Homo sapiens)", "IC50": "19 nM"}
{"Compound": "Cc1cc(C(F)(F)F)cc(N2C(=O)N(CCN3CC[C@@H](O)C3)C[C@H]2C(=O)N(C)c2ccc(F)c(Cl)c2)n1", "Target or system": "Polθ protein (amino acids 2-2590) (Homo sapiens)", "IC50": "19 nM"}
{"Compound": "CCN(C(=O)[C@@H]1C[C@H](O)CN1c1nc(C)cc(C(F)(F)F)n1)c1ccc(F)c(Cl)c1", "Target or system": "Polθ protein (amino acids 2-2590) (Homo sapiens)", "IC50": "166 nM"}
{"Compound": "Cc1cc(C(F)(F)F)cc(N2C(=O)OC[C@H]2C(=O)N(C)c2ccc(Cl)c(Cl)c2)n1", "Target or system": "Polθ protein (amino acids 2-2590) (Homo sapiens)", "IC50": "16 nM"}

Origin of values: patent US12358886B2
